Test system: HCT116 cells
run description: HCT116 cytotoxic activity assay (Alamar Blue, 72 h)
Assay type: cell-based
experimental conditions: Homo sapiens, HCT-116, 72 h compound exposure, greater than 2 μM
pIC50: −log10 of the molar value.

structure	pIC50
NC(=O)c1cc(Oc2cccc(Nc3cc(-c4ccc[nH]4)nc(N)n3)c2)ccn1	< 5.70
Nc1nc(Nc2ccc(Oc3ccnc(CNC4CCCCC4)c3)cc2)cc(-c2ccccc2)n1	< 5.70
CC(=O)c1ccc(Oc2ccc(Nc3cc(-c4ccccc4)nc(N)n3)cn2)cc1	< 5.70
COC[C@@H]1CCCN1c1cc(Oc2cccc(Nc3cc(-c4ccccc4)nc(N)n3)c2)ccn1	< 5.70
Cc1cc(Oc2ccc(Nc3cc(-c4ccc(OC(F)(F)F)cc4)nc(N)n3)cc2)ccn1	< 5.70
NC(=O)c1cc(Oc2cccc(Nc3cc(-c4ccc(F)cc4)nc(N)n3)c2)ccn1	< 5.70
COc1ccc(C(C)C)cc1-c1cc(Nc2cccc(Oc3ccnc(C(N)=O)c3)c2)nc(N)n1	< 5.70
CC(C)c1ccc(-c2cc(Nc3cccc(Oc4ccnc(C(N)=O)c4)c3)nc(N)n2)cc1	< 5.70
Cc1cc(Oc2ccc(Nc3cc(-c4cccc(C(F)(F)F)c4)nc(N)n3)cc2)ccn1	< 5.70
CN(C)c1ccc(-c2cc(Nc3cccc(Oc4ccnc(C(N)=O)c4)c3)nc(N)n2)cc1	< 5.70
CNC(=O)c1cc(Oc2cccc(Nc3cc(-c4ccc(F)cc4)nc(N)n3)c2)ccn1	< 5.70
Nc1nc(Nc2ccc(Oc3ccnc(C(F)(F)F)c3)cc2)cc(-c2ccc(OC(F)(F)F)cc2)n1	< 5.70
N#Cc1cc(Oc2ccc(Nc3cc(-c4cccc(C(F)(F)F)c4)nc(N)n3)cc2)ccn1	< 5.70
NC(=O)c1cc(Oc2ccc(Nc3cc(-c4ccc(Cl)c(Cl)c4)nc(N)n3)cc2)ccn1	< 5.70
NC(=O)c1cc(Oc2cccc(Nc3cc(-c4cccc(F)c4)nc(N)n3)c2)ccn1	< 5.70
CNC(=O)c1cc(Oc2ccc(Nc3cc(-c4ccc(F)cc4)nc(N)n3)cc2)ccn1	< 5.70
